These data points were gathered from the supplement of paper PMC10567573.

B1: ZNF8 (parent)
chain: VHVIGVEEPSVGASMLFDIREST

Variants of: B1
PROTOCOL: protein stability index of a GFP-peptide fusion (GPS, HEK-293T) (PSI 1-6); higher = more stable;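 note: lentivirally expressed fusions sorted by FACS into six bins by GFP to DsRed ratio, PSI derived from sequencing read proportions per bin multiplied by bin number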
TEST_CONDITIONS: c terminus: native
// map protein stability index to label using low group = under 2, middle group = from 2 up to 3, high group = 3 and over

Examples with answers:
- VMVIGVEEPSVGASMLFDIREST [H2M]: low group
- VHVIGVEEPSVGASMLFDIREIT [S22I]: low group

**Query** Class (by measured protein stability index) for VHVIGVEEPSVGASMMFDIREST [L16M]
**Result** low group

**Query** Class (by measured protein stability index) for VHVDGVEEPSVGASMLFDIREST [I4D]
**Result** high group

**Query** Class (by measured protein stability index) for VHVICVEEPSVGASMLFDIREST [G5C]
**Result** middle group

**Query** Class (by measured protein stability index) for VHVIGKEEPSVGASMLFDIREST [V6K]
**Result** middle group

**Query** Class (by measured protein stability index) for VHVIGVEEPSVGASGLFDIREST [M15G]
**Result** high group

**Query** Class (by measured protein stability index) for VHVIGVNEPSVGASMLFDIREST [E7N]
**Result** low group

**Query** Class (by measured protein stability index) for VHVIGVEEPSVGASMLMDIREST [F17M]
**Result** middle group

**Query** Class (by measured protein stability index) for VHVIGVEEPSVGLSMLFDIREST [A13L]
**Result** middle group

**Query** Class (by measured protein stability index) for VHVIGVEEPSVGASRLFDIREST [M15R]
**Result** middle group

**Query** Class (by measured protein stability index) for VDVIGVEEPSVGASMLFDIREST [H2D]
**Result** high group

**Query** Class (by measured protein stability index) for SHVIGVEEPSVGASMLFDIREST [V1S]
**Result** high group
